# TARGET_DESC: RAC-alpha serine/threonine-protein kinase (Homo sapiens) (UniProt P31749)
# Sequence (P31749 whole entry): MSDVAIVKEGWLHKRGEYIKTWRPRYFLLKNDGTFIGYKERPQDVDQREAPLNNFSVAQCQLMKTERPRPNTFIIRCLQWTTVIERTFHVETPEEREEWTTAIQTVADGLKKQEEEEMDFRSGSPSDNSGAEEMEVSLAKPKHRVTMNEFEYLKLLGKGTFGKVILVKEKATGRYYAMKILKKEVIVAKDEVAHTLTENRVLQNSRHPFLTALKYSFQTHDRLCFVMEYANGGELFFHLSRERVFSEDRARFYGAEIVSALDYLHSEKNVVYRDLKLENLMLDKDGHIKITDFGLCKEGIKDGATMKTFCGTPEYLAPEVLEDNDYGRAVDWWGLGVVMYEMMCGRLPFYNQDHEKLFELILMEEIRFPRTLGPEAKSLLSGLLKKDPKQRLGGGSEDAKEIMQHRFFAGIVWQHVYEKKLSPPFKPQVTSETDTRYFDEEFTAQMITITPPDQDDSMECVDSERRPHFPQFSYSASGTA
# RUN_PARAMETERS: at 1 µM
# Description: GSK_PKIS: AKT1 mean inhibition at 1 uM [Nanosyn]
Listed here: items and their measured inhibition.
READOUT_TYPE: inhibition (%)

• CNC(=O)c1sc(-n2cnc3cc(OC)c(OC)cc32)cc1OCc1ccccc1C(F)(F)F = 0.75
• COc1cc(N2CCN(C(C)C)CC2)ccc1Nc1nc(Nc2cccc(F)c2C(=O)O)c2cc[nH]c2n1 = 0.67
• COC(=O)Nc1nc2ccc(Oc3ccc(NC(=O)Nc4cc(C(F)(F)F)ccc4F)cc3)cc2s1 = -0.66
• CS(=O)(=O)Nc1ccc(-c2ccc3c(NC(=O)C4CC4)n[nH]c3c2)cc1 = 2.3
• COc1cccc(-n2ncc3c(N/N=C/c4ccc(C(=O)NCCN(C)C)cc4)ncnc32)c1 = -4.74
• Cc1nnc(-c2cccc(-c3ccc(C(=O)NCC4CC4)cc3)c2)o1 = 1.35
• Cc1cc(O)cc(C)c1/C=C/c1cncc(C(=O)OC(C)(C)C)c1 = 0.97
• COc1cccc(Nc2nccc(-c3cnn4ncccc34)n2)c1 = 0.43
• CN(C)CCNC(=O)Nc1ccc(N(C)c2ccnc(Nc3ccc(CS(C)(=O)=O)cc3)n2)cc1 = 0.77
• CCCNc1cccc(-n2ncc3c(N/N=C/c4ccncc4)ncnc32)c1 = -0.51
• CN(c1ccc(NC(=O)NCCN2CCOCC2)cc1)c1ccnc(Nc2ccc(CS(C)(=O)=O)cc2)n1 = -0.42
• Cn1c(-c2nonc2N)nc2cnccc21 = 0.36
• N#Cc1cccc(Nc2ncc(-c3ccccc3)o2)c1 = -0.69
• Fc1cccc(COc2ccc(Nc3ncncc3C#Cc3ccccc3)cc2Cl)c1 = 1.07
